Field: ALT. Provide a value for each of the compounds that follow.
Species: Rattus norvegicus
Test: Open TG-GATES - Regimen: Single
Format: toxicity, organism-based, Sprague-Dawley
Set-up: regimen Single, gender Male, age 6 weeks
Conditions: in vivo, po, 100 mg/kg, 9 h, tissue Plasma, route gavage, dose level High
Dear colleague, please return just the value in IU/L, with no unit written.

Recorded result, `CN(C)CCN(Cc1cccs1)c1ccccn1` , ALT: 60.2

Recorded result, `CN(C)CCCN1c2ccccc2CCc2ccccc21` , ALT: 35.6

Recorded result, `CN(C)CCCN1c2ccccc2CCc2ccc(Cl)cc21` , ALT: 32.4

Recorded result, `CC1=C(/C=C/C(C)=C/C=C/C(C)=C/CO)C(C)(C)CCC1` , ALT: 35.2

###

Field: KIDNEY_TOTAL. Provide a value for each of the compounds that follow.
Species on record: Rattus norvegicus
Assay: Open TG-GATES - Regimen: Single
Format: toxicity, organism-based, Sprague-Dawley
Parameters: regimen Single, gender Male, age 6 weeks
Settings: in vivo, po, 30 mg/kg, 24 h, tissue Kidney, route gavage, dose level Middle
Dear colleague, please return just the value in g, with no unit written.

Recorded result, `CN(C)CCCN1c2ccccc2CCc2ccccc21` , KIDNEY_TOTAL: 1.8

Recorded result, `CN(C)CCN(Cc1cccs1)c1ccccn1` , KIDNEY_TOTAL: 1.8

Recorded result, `CN(C)CCCN1c2ccccc2CCc2ccc(Cl)cc21` , KIDNEY_TOTAL: 2.1

Recorded result, `CC1=C(/C=C/C(C)=C/C=C/C(C)=C/CO)C(C)(C)CCC1` , KIDNEY_TOTAL: 1.9

###

Organism: Rattus norvegicus
Assay: Open TG-GATES - Regimen: Daily Repeat
Type: toxicity, organism-based, Sprague-Dawley
Parameters: regimen Daily Repeat, gender Male, age 6 weeks
Details: in vivo, po, 100 mg/kg, […], tissue Plasma, route gavage, dose level Low, time 28 day
GLC under 200 mg/dL gets Criterion met, anything at or over 200 mg/dL gets Criterion not met.

Task: Quick check: does COC1=CC(=O)C[C@@H](C)[C@]12Oc1c(Cl)c(OC)cc(OC)c1C2=O [GRISEOFULVIN] have GLC under 200 mg/dL?
Output: Criterion not met

Task: Quick check: does CCOc1ccc(NC(=O)CC(C)O)cc1 (stereo not given) [BUCETIN] have GLC under 200 mg/dL?
Output: Criterion met

Task: Quick check: does COc1ccc2[nH]c([S+]([O-])Cc3ncc(C)c(OC)c3C)nc2c1 (stereo not given) [OMEPRAZOLE] have GLC under 200 mg/dL?
Output: Criterion not met

Task: Quick check: does NC(N)=Nc1nc(CSCCC(N)=NS(N)(=O)=O)cs1 [FAMOTIDINE] have GLC under 200 mg/dL?
Output: Criterion not met

###

Organism: Rattus norvegicus
Experiment: Open TG-GATES - Regimen: Single
Assay type: toxicity, organism-based, Sprague-Dawley
Set-up: regimen Single, gender Male, age 6 weeks
Details: in vivo, po, 1000 mg/kg, 6 h, tissue Plasma, route gavage, dose level High
outcome-measure: gamma-GTP (IU/L)
Dear colleague, please return just the value in IU/L, with no unit written.

Recorded result, `NC(N)=Nc1nc(CSCCC(N)=NS(N)(=O)=O)cs1` , gamma-GTP: 1.4

Recorded result, CCOC(=O)CCC(=O)O[C@H]1[C@H](O[C@@H]2[C@@H](C)[C@H](O[C@H]3C[C@@](C)(OC)[C@@H](O)[C@H](C)O3)[C@@H](C)C(=O)O[C@H](CC)[C@@](C)(O)[C@H](O)[C@@H](C)C(=O)[C@H](C)C[C@@]2(C)O)O[C@H](C)C[C@@H]1N(C)C [ERYTHROMYCIN ETHYLSUCCINATE] , gamma-GTP: 1.4

Recorded result, `COC1=CC(=O)C[C@@H](C)[C@]12Oc1c(Cl)c(OC)cc(OC)c1C2=O` , gamma-GTP: 1.4

Recorded result, CC(C)OC(=O)C(C)(C)Oc1ccc(C(=O)c2ccc(Cl)cc2)cc1 [FENOFIBRATE] , gamma-GTP: 1.2

Recorded result, COc1ccc2[nH]c([S+]([O-])Cc3ncc(C)c(OC)c3C)nc2c1 (stereo not given) , gamma-GTP: 1.2

###

Species on record: Rattus norvegicus
Experiment: Open TG-GATES - Regimen: Single
Assay type: toxicity, organism-based, Sprague-Dawley
Set-up: regimen Single, gender Male, age 6 weeks
Settings: in vivo, po, 10 mg/kg, 3 h, tissue Plasma, route gavage, dose level Low
Field: ALP. Provide a value for each of the compounds that follow.
Dear colleague, please return just the value in IU/L, with no unit written.

Recorded result, `CN(C)CCN(Cc1cccs1)c1ccccn1` , ALP: 1664.4

Recorded result, `CN(C)CCCN1c2ccccc2CCc2ccccc21` , ALP: 1700

Recorded result, CC(C)OC(=O)C(C)(C)Oc1ccc(C(=O)c2ccc(Cl)cc2)cc1 [FENOFIBRATE] , ALP: 1472.8

Recorded result, `CN(C)CCCN1c2ccccc2CCc2ccc(Cl)cc21` , ALP: 1810.4

Recorded result, `CC1=C(/C=C/C(C)=C/C=C/C(C)=C/CO)C(C)(C)CCC1` , ALP: 1940

###

Species on record: Rattus norvegicus
Experiment: Open TG-GATES - Regimen: Daily Repeat
Assay type: toxicity, organism-based, Sprague-Dawley
Parameters: regimen Daily Repeat, gender Male, age 6 weeks
Settings: in vivo, po, 1000 mg/kg, […], tissue Blood, route gavage, dose level High, time 7 day
outcome-measure: MCV
Form field: result (number plus unit)

Recorded result, CCOC(=O)CCC(=O)O[C@H]1[C@H](O[C@@H]2[C@@H](C)[C@H](O[C@H]3C[C@@](C)(OC)[C@@H](O)[C@H](C)O3)[C@@H](C)C(=O)O[C@H](CC)[C@@](C)(O)[C@H](O)[C@@H](C)C(=O)[C@H](C)C[C@@]2(C)O)O[C@H](C)C[C@@H]1N(C)C [ERYTHROMYCIN ETHYLSUCCINATE] , MCV: 60.4 fL

Recorded result, NC(N)=Nc1nc(CSCCC(N)=NS(N)(=O)=O)cs1 [FAMOTIDINE] , MCV: 60.3 fL

Recorded result, CCOc1ccc(NC(=O)CC(C)O)cc1 (stereo not given) [BUCETIN] , MCV: 64 fL

Recorded result, COc1ccc2[nH]c([S+]([O-])Cc3ncc(C)c(OC)c3C)nc2c1 (stereo not given) [OMEPRAZOLE] , MCV: 59 fL

Recorded result, COC1=CC(=O)C[C@@H](C)[C@]12Oc1c(Cl)c(OC)cc(OC)c1C2=O [GRISEOFULVIN] , MCV: 62.9 fL

###

Field: Lym. Provide a value for each of the molecules that follow.
Species: Rattus norvegicus
Test: Open TG-GATES - Regimen: Single
Assay type: toxicity, organism-based, Sprague-Dawley
Design: regimen Single, gender Male, age 6 weeks
Settings: in vivo, po, 100 mg/kg, 9 h, tissue Blood, route gavage, dose level Low
Dear colleague, please return just the value in %, with no unit written.

Recorded result, COc1ccc2[nH]c([S+]([O-])Cc3ncc(C)c(OC)c3C)nc2c1 (centres undefined) [OMEPRAZOLE] , Lym: 76.8

Recorded result, NC(N)=Nc1nc(CSCCC(N)=NS(N)(=O)=O)cs1 [FAMOTIDINE] , Lym: 74.2

Recorded result, CCOC(=O)CCC(=O)O[C@H]1[C@H](O[C@@H]2[C@@H](C)[C@H](O[C@H]3C[C@@](C)(OC)[C@@H](O)[C@H](C)O3)[C@@H](C)C(=O)O[C@H](CC)[C@@](C)(O)[C@H](O)[C@@H](C)C(=O)[C@H](C)C[C@@]2(C)O)O[C@H](C)C[C@@H]1N(C)C [ERYTHROMYCIN ETHYLSUCCINATE] , Lym: 80.4

Recorded result, COC1=CC(=O)C[C@@H](C)[C@]12Oc1c(Cl)c(OC)cc(OC)c1C2=O [GRISEOFULVIN] , Lym: 74.8

###

Species on record: Rattus norvegicus
Experiment: Open TG-GATES - Regimen: Single
Format: toxicity, organism-based, Sprague-Dawley
Design: regimen Single, gender Male, age 6 weeks
Conditions: in vivo, po, 100 mg/kg, 3 h, tissue Kidney, route gavage, dose level High
Field: KIDNEY_L. Provide a value for each of the molecules that follow.
Dear colleague, please return just the value in g, with no unit written.

Recorded result, CN(C)CCCN1c2ccccc2CCc2ccc(Cl)cc21 [CLOMIPRAMINE] , KIDNEY_L: 1

Recorded result, CN(C)CCCN1c2ccccc2CCc2ccccc21 [IMIPRAMINE] , KIDNEY_L: 0.9

Recorded result, `CN(C)CCN(Cc1cccs1)c1ccccn1` , KIDNEY_L: 0.8

Recorded result, CC1=C(/C=C/C(C)=C/C=C/C(C)=C/CO)C(C)(C)CCC1 [RETINOL] , KIDNEY_L: 0.9

Data provenance: ChEMBL document CHEMBL3885861
